Would you kindly list inhibition for each of these molecules?
system: Mast/stem cell growth factor receptor Kit (Homo sapiens), P10721 [V560G]; settings: at 0.1 µM
Sequence (P10721 whole entry V560G): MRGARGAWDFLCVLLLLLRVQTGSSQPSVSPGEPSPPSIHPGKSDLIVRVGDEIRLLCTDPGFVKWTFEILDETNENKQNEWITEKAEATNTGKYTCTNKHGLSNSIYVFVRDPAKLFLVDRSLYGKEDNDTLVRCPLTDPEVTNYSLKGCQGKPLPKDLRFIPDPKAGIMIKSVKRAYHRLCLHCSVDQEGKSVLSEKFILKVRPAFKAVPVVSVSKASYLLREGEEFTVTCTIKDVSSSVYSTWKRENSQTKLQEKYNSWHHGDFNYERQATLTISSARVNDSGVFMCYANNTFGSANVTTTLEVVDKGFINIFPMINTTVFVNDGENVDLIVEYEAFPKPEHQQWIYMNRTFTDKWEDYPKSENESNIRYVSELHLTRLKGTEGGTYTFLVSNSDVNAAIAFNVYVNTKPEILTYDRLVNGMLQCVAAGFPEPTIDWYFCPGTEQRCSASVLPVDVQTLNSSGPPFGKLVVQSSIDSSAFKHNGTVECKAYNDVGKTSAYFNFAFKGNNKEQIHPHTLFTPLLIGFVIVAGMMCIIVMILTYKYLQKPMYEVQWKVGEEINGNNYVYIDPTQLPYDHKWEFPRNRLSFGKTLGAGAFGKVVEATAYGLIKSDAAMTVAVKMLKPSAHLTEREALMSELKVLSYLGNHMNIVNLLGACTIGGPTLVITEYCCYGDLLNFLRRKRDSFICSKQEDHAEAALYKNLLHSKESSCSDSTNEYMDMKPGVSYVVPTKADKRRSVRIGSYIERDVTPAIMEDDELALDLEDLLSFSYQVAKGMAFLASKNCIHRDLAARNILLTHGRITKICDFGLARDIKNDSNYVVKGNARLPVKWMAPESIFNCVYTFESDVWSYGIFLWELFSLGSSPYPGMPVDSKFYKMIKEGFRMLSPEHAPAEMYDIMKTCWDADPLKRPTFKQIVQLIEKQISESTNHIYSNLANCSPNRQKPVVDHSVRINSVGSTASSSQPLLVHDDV
Provide a numeric answer, followed by its unit.

// `CNC(=O)c1ncccc1Nc1nc(Nc2cc3c(cc2OC)CCCN3C(=O)CN(C)C)nc2[nH]ccc12` : inhibition value = -0.63%

get_value(item= `COc1ccc(-c2nn3ncccc3c2-c2ccnc(Nc3ccc(F)c(F)c3)n2)cc1` , readout=inhibition) returns -0.18%

// sample `CN1CCC(n2cnc(-c3ccc(F)cc3)c2-c2ccnc(NCCO)n2)CC1` , its inhibition was -1.29%

Lab note: measured inhibition of `Fc1cccc(COc2ccc(Nc3ncncc3C#Cc3ccccc3)cc2Cl)c1` was -1.39%

* * *

molecular target: RAC-beta serine/threonine-protein kinase (Homo sapiens) (UniProt P31751); details: at 1 µM
Sequence (P31751 whole entry): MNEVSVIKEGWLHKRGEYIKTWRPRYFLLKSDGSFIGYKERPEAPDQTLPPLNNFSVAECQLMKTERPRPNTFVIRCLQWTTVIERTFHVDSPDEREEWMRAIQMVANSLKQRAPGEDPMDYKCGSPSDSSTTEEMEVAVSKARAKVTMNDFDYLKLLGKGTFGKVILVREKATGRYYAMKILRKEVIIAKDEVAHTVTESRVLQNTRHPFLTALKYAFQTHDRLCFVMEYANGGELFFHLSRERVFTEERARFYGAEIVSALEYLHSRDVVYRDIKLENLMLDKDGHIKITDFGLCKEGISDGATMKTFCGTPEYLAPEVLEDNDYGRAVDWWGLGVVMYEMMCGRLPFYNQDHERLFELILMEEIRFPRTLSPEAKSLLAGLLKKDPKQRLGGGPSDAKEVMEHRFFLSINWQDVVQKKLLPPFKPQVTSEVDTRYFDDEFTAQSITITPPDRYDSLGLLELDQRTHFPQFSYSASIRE
Description: GSK_PKIS: AKT2 mean inhibition at 1 uM [Nanosyn]
attribute-measured: inhibition (%)
Response body: numeric value in %, unit text excluded.

Documented inhibition of `CNC(=O)c1cncc(/C=C/c2ccccc2C)c1` : 2.34

`CN(c1ccc(NC(=O)NCCN2CCOCC2)cc1)c1ccnc(Nc2ccc(CS(C)(=O)=O)cc2)n1` has a reported inhibition of 0.37

get_value(item= `CNC(=O)c1ncccc1Nc1nc(Nc2cc3c(cc2OC)CCCN3C(=O)CN(C)C)nc2[nH]ccc12` , readout=inhibition) returns 2.14

Reported inhibition for `NS(=O)(=O)c1ccc(N/N=C2\C(=O)Nc3ccc(C(=O)NCc4ccncc4)cc32)cc1` was 1.92

The measured inhibition associated with `CS(=O)(=O)Nc1ccc(-c2ccc3c(NC(=O)C4CC4)n[nH]c3c2)cc1` reads 4.27

Notebook: `N#Cc1cccc(Nc2ncc(-c3ccccc3)o2)c1` , inhibition read as 0.75

The reported value for `COc1ccc(-c2nn3ncccc3c2-c2ccnc(Nc3ccc(F)c(F)c3)n2)cc1` in terms of inhibition is 1.42

Entry `CS(=O)(=O)CCNCc1ccc(-c2ccc3ncnc(Nc4ccc(OCc5cccc(C(F)(F)F)c5)cc4)c3c2)o1` ; inhibition = 1.64

`COc1cc2c(cc1Nc1nc(Nc3cccc(F)c3C(N)=O)c3cc[nH]c3n1)N(C(=O)CN1CCN(C(C)C)CC1)CC2` has a reported inhibition of 3.18

Measured inhibition of `CCOc1ccc2c(-c3ccnc(Nc4cc(OC)cc(C(F)(F)F)c4)n3)cnn2n1` : 0.53

GET /value?item= `COc1cccc(-n2ncc3c(N/N=C/c4ccc(C(=O)NCCN(C)C)cc4)ncnc32)c1` &field=inhibition returns -2.95

Value of measured inhibition for the entry `c1cnn2ncc(-c3ccnc(NCCCN4CCOCC4)n3)c2c1` : 1.85

Query `NS(=O)(=O)c1ccc(N/N=C2\C(=O)Nc3cccc(CCc4ccncc4)c32)cc1` yields inhibition of 0.27

inhibition recorded for this molecule, `CCn1c(-c2nonc2N)nc2cncc(C(=O)NCCNC)c21` , is 10.5

`NC(=O)c1ccc2c(-c3ccnc(NCCCO)n3)c(-c3ccc(F)cc3)nn2c1` has a reported inhibition of 1.08

* * *

target: 5'-AMP-activated protein kinase catalytic subunit alpha-1 (Homo sapiens) (UniProt Q13131); conditions: at 1 µM;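 also: mean percent inhibition of the AMPK A1B1G1 complex (alpha1 beta1 gamma1) in the GSK PKIS kinase inhibitor screen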
Sequence (Q13131 whole entry, looked up): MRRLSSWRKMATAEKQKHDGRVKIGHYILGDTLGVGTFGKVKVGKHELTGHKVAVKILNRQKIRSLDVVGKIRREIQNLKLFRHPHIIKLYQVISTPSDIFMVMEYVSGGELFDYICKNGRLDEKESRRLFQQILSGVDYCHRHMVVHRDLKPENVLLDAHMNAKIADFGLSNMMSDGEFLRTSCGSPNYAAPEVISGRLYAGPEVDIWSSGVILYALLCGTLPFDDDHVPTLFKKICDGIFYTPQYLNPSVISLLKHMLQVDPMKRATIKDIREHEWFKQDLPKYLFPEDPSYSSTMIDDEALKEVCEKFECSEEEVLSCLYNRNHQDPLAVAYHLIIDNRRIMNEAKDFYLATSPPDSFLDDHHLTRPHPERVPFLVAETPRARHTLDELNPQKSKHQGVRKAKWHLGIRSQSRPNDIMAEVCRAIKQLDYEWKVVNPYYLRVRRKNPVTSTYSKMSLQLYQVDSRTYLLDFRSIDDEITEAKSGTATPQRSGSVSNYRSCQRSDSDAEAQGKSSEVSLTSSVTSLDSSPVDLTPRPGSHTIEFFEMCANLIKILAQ
So I've got a bunch of compounds here, and I need their inhibition values.
Record the value in %, omitting the unit from your answer.

inhibition reported for this compound `COc1cccc(-n2ncc3c(N/N=C/c4ccc(C(=O)NCCN(C)C)cc4)ncnc32)c1` : 12.3

Lab book: inhibition of `COc1cccc(Nc2nccc(-c3cnn4ncccc34)n2)c1` noted as 10.9

Entry `Cc1ccc(-c2cc3c(NC(=O)C4CC4)ncnc3o2)cc1` ; inhibition = 5.1

The recorded inhibition for entry `COC(=O)Nc1nc2ccc(Oc3ccc(NC(=O)Nc4cc(C(F)(F)F)ccc4F)cc3)cc2s1` equals 0.03

The recorded inhibition for entry `OCCCNc1nccc(-c2c(-c3ccc(F)cc3)nn3cc(C(F)(F)F)ccc23)n1` equals 1.3

// inhibition lookup, compound = `CN(C)CCNC(=O)Nc1ccc(N(C)c2ccnc(Nc3ccc(CS(C)(=O)=O)cc3)n2)cc1` , result: 5.07

inhibition reported for this compound `COc1cc(Nc2ncc(-c3ccccc3)o2)cc(OC)c1` : 5.67

`N#Cc1ccc2c(-c3ccnc(NC4CC4)n3)c(-c3ccc(F)cc3)nn2c1` has a reported inhibition of 0.77

Entry `COc1ccc(Nc2ncc(-c3ccccc3)o2)cc1OC` , inhibition reported as 5.29

inhibition in this record for `CNC(=O)c1ncccc1Nc1nc(Nc2cc3c(cc2OC)CCCN3C(=O)CN(C)C)nc2[nH]ccc12` : 6.88

Looking up `COc1c(C(N)=O)cc(-c2ccc(Cl)cc2)cc1-c1ccc(S(N)(=O)=O)cc1` , I found its inhibition recorded as 4.47

Looking up `COc1cc(N2CCN(C(C)C)CC2)ccc1Nc1nc(Nc2cccc3ncccc23)c2cc[nH]c2n1` , I found its inhibition recorded as 0.86

The compound listed as `Cc1c2ccc(N(C)c3ccnc(Nc4cccc(S(N)(=O)=O)c4)n3)cc2nn1C` has a reported inhibition of 4.2

Record `COc1ccc(-c2nn3ncccc3c2-c2ccnc(Nc3ccc(F)c(F)c3)n2)cc1` , field inhibition: 9.36

inhibition for `CCn1c(-c2nonc2N)nc2cncc(C(=O)NCCNC)c21` is 8.23

response.value for `c1cnn2ncc(-c3ccnc(NCCCN4CCOCC4)n3)c2c1` (field: inhibition) = 2.5

The compound listed as `N#Cc1cccc(Nc2ncc(-c3ccccc3)o2)c1` shows inhibition equal to 1.53
